# Tested on: CD2F1 mice, L1210 leukemia ip, survival T/C
# measurementProtocol: NCI In Vivo Anticancer Drug Screen. Data for tumor model L1210 Leukemia (intraperitoneal) in CD2F1 (CDF1) mice
# measurementParameters: endpoint: mean survival time; dose: 400.0 mg/kg/injection; schedule: Q01DX009 (ip); vehicle: saline; higher = longer survival
Inconclusive results and toxic doses are left out.
Each item that follows carries a reported T/C.

Below, 6 compounds whose answers are already recorded.
{"columns": ["compound", "reported"],
 "data": [
  ["NC(=O)Nc1ccccc1", "101 % of control"],
  ["N[C@@H](Cc1ccc(O)c(O)c1)C(=O)O", "108 % of control"],
  ["CC(=O)OC(CC(=O)CC(OC(C)=O)(C(F)(F)F)C(F)(F)F)(C(F)(F)F)C(F)(F)F", "103 % of control"],
  ["CCOC(=O)C(F)(F)F", "95 % of control"],
  ["Cc1cccc(=N)n1CCC(=O)O", "95 % of control"],
  ["CN(C)CCN(C)C", "106 % of control"]
]}

So the reported T/C for `O.O=C(O)CN(CCN(CC(=O)O)CC(=O)O)CC(=O)O.[Rh+2]` , on CD2F1 mice, L1210 leukemia ip, survival T/C, turned out to be 96 % of control

So the reported T/C for `CCSSCCN` , on CD2F1 mice, L1210 leukemia ip, survival T/C, turned out to be 102 % of control

So the reported T/C for CC(C)C1(C)NC(=O)NC1=O (stereo not given) , on CD2F1 mice, L1210 leukemia ip, survival T/C, turned out to be 98 % of control

So the reported T/C for `CC(C)C(=O)C(C)(C)C(=O)N1CCCC1` , on CD2F1 mice, L1210 leukemia ip, survival T/C, turned out to be 91 % of control

So the reported T/C for Cc1ccc(C)c(C(O)C2CC2)c1 (stereo not given) , on CD2F1 mice, L1210 leukemia ip, survival T/C, turned out to be 102 % of control

So the reported T/C for NC(CSCc1cccs1)C(=O)O (stereo not given) , on CD2F1 mice, L1210 leukemia ip, survival T/C, turned out to be 95 % of control

So the reported T/C for OCC(O)COCc1ccccc1 (stereo not given) , on CD2F1 mice, L1210 leukemia ip, survival T/C, turned out to be 96 % of control

So the reported T/C for `O=C1CCC(=O)N1C1c2ccccc2Oc2ccccc21` , on CD2F1 mice, L1210 leukemia ip, survival T/C, turned out to be 92 % of control

So the reported T/C for `CCCCn1cnc2c(=S)nc[nH]c21` , on CD2F1 mice, L1210 leukemia ip, survival T/C, turned out to be 102 % of control

---

# Test system: CD2F1 mice, L1210 leukemia ip, survival T/C
# measurementProtocol: NCI In Vivo Anticancer Drug Screen. Data for tumor model L1210 Leukemia (intraperitoneal) in CD2F1 (CDF1) mice
# measurementParameters: endpoint: mean survival time; dose: 100.0 mg/kg/injection; schedule: Q01DX005 (ip); vehicle: distilled water + Tween-80; higher = longer survival
Inconclusive results and toxic doses are left out.
Each item that follows carries a reported T/C.

Below, 4 molecules whose answers are already recorded.
{"columns": ["molecule", "testedTarget", "T/C"],
 "data": [
  ["CC(=O)Cc1cc(=O)n(C2OC(COC(=O)c3ccccc3)C(OC(=O)c3ccccc3)C2OC(=O)c2ccccc2)c(=O)[nH]1 (stereo not given)", "CD2F1 mice, L1210 leukemia ip, survival T/C", "95 % of control"],
  ["Nc1nc(=S)n(C2OCC(O)C(O)C2O)c2ccccc12 (stereo not given)", "CD2F1 mice, L1210 leukemia ip, survival T/C", "96 % of control"],
  ["CC(C)CSCC1OC(n2cnc3c(N)nccc32)C(O)C1O (stereo not given)", "CD2F1 mice, L1210 leukemia ip, survival T/C", "88 % of control"],
  ["Nc1ncnc2c1ncn2C1OC(COP(N)(N)=O)C(O)C1O (stereo not given)", "CD2F1 mice, L1210 leukemia ip, survival T/C", "102 % of control"]
]}

So the reported T/C for OCC1OC(n2cnc3c(Nc4ccccc4)ncnc32)C(O)C1O (stereo not given) , on CD2F1 mice, L1210 leukemia ip, survival T/C, turned out to be 94 % of control

---

# Test system: CD2F1 mice, L1210 leukemia ip, survival T/C
# measurementProtocol: NCI In Vivo Anticancer Drug Screen. Data for tumor model L1210 Leukemia (intraperitoneal) in CD2F1 (CDF1) mice
# measurementParameters: endpoint: mean survival time; dose: 25.0 mg/kg/injection; schedule: Q01DX001 (ip); vehicle: saline with Tween-80; higher = longer survival
Inconclusive results and toxic doses are left out.
Each item that follows carries a reported T/C.

Below, 3 compounds whose answers are already recorded.
{"columns": ["structure", "testedTarget", "reported"],
 "data": [
  ["Nc1nc2c(ncn2-c2ccccc2F)c(=O)[nH]1", "CD2F1 mice, L1210 leukemia ip, survival T/C", "102 % of control"],
  ["O=C(O)/C=C/c1ccc([N+](=O)[O-])o1", "CD2F1 mice, L1210 leukemia ip, survival T/C", "96 % of control"],
  ["CC(C)(C)C1=CC(=N/S(=O)(=O)c2ccccc2)/C(N=[N+]=[N-])=C(Cl)C/1=N\\S(=O)(=O)c1ccccc1", "CD2F1 mice, L1210 leukemia ip, survival T/C", "101 % of control"]
]}

Let's switch to this compound now.
Summary for this compound, `O=C1O/C(=C\c2ccccc2)C(O)=C1c1ccccc1` : T/C is 102 % of control

---

Each item that follows carries a reported T/C.
# Test system: CD2F1 mice, L1210 leukemia ip, survival T/C
# measurementProtocol: NCI In Vivo Anticancer Drug Screen. Data for tumor model L1210 Leukemia (intraperitoneal) in CD2F1 (CDF1) mice
# measurementParameters: endpoint: mean survival time; dose: 200.0 mg/kg/injection; schedule: Q04DX002 (ip); vehicle: other; higher = longer survival
Toxic doses and inconclusive results are not listed.

Below, 3 molecules whose answers are already recorded.
{"columns": ["structure", "testedTarget", "measuredProperty", "reported"],
 "data": [
  ["COC(=O)c1cccc(O)c1O", "CD2F1 mice, L1210 leukemia ip, survival T/C", "T/C", "92 % of control"],
  ["O=C(NC(=S)Nc1cccc(F)c1)c1cccc(Br)c1", "CD2F1 mice, L1210 leukemia ip, survival T/C", "T/C", "91 % of control"],
  ["CCC(=O)Oc1ccc(/C=N/NC(N)=S)nc1", "CD2F1 mice, L1210 leukemia ip, survival T/C", "T/C", "123 % of control"]
]}

Summary for this molecule, `Oc1ccccc1OCCOCCOc1ccccc1O` : T/C is 103 % of control

---

# Test system: CD2F1 mice, L1210 leukemia ip, survival T/C
# measurementProtocol: NCI In Vivo Anticancer Drug Screen. Data for tumor model L1210 Leukemia (intraperitoneal) in CD2F1 (CDF1) mice
# measurementParameters: endpoint: mean survival time; dose: 100.0 mg/kg/injection; schedule: Q01DX009 (ip); vehicle: water; higher = longer survival
Inconclusive results and toxic doses are left out.
Each item that follows carries a reported T/C.

{"columns": ["molecule", "measuredProperty", "reported"],
 "data": [
  ["O=C1Cc2cc3c(cc2C=C2CCCN12)OCO3", "T/C", "103 % of control"],
  ["CC(C)NCCCC(=O)O", "T/C", "98 % of control"],
  ["CCOC(=O)C(NCc1ccccc1)C(=O)OCC", "T/C", "93 % of control"]
]}

Summary for this molecule, CS(=O)(=O)OCC1NC(=O)C(COS(C)(=O)=O)NC1=O (centres undefined) : T/C is 100 % of control

---

# System: CD2F1 mice, L1210 leukemia ip, survival T/C
# measurementProtocol: NCI In Vivo Anticancer Drug Screen. Data for tumor model L1210 Leukemia (intraperitoneal) in CD2F1 (CDF1) mice
# measurementParameters: endpoint: median survival time; dose: 25.0 mg/kg/injection; schedule: Q01DX009 (ip); vehicle: saline; higher = longer survival
Inconclusive results and toxic doses are left out.
measuredProperty: T/C

{"columns": ["compound", "testedTarget", "T/C"],
 "data": [
  ["C/C(=N\\NC(=O)c1ccccc1O)c1cccc(/C(C)=N/NC(=O)c2ccccc2O)n1", "CD2F1 mice, L1210 leukemia ip, survival T/C", "93 % of control"]
]}

Summary for this compound, NC(=S)c1ncn(C2OC(CO)C(O)C2O)c1N (stereo not given) : T/C is 115 % of control

Summary for this compound, CCC1OC(OC)C=CC1=O (stereo not given) : T/C is 102 % of control

Summary for this compound, `c1csc(C[N+]23CN4CN(CN(C4)C2)C3)c1` : T/C is 107 % of control

Summary for this compound, COc1nc(=O)n(C2C=CC(=O)O2)cc1F (stereo not given) : T/C is 108 % of control
